Assay: qHTS drug screen for cell cycle checkpoint inhibitors in PARPi-resistant BRCA-mutant ovarian cancer cell lines. (AID 1963452)
Study Conditions: PEO1/OlaR viability, CellTiter-Glo luminescence, 96 h; measured here: PEO1 parental Z-AUC; stronger effect = lower value
I'd appreciate it if you marked entries Yes when Z-AUC is lower than -0.6 and No when it is not.

Query string: Consider "O=[N+]([O-])c1ccc(Nc2ccccc2-c2ccccc2)c2nonc12" . Does its Z-AUC lie strictly below -0.6?
Result string: No

Query string: Determine if "O=C(O)c1ccc(O)c2ncc(N3CCOCC3)cc12" shows Z-AUC strictly lower than -0.6.
Result string: Yes

Query string: Hello, is Z-AUC of the following compound strictly smaller than -0.6? "Cc1cc(OCCCS(C)(=O)=O)cc(C)c1-c1cccc(COc2ccc3c(c2)OC[C@H]3CC(=O)O)c1"
Result string: No

Query string: hey, is Z-AUC for "Cc1cnc(Nc2cccc(CN3CCOCC3)c2)nc1Nc1cccc(S(=O)(=O)NC(C)(C)C)c1" lower than -0.6 or not?
Result string: Yes

Query string: Please check: Z-AUC for "CN1C(=O)C[C@H](C(=O)N[C@@H](Cc2cnc[nH]2)C(=O)N2CCC[C@@H]2C(N)=O)NC1=O" , strictly under -0.6 or not?
Result string: No
